These data points were gathered from paper PMC6982223.

- ASSAY SYSTEM: PARP-1 (Homo sapiens, UniProt P09874)
- Construct: made in house
- Sequence (P09874 whole entry): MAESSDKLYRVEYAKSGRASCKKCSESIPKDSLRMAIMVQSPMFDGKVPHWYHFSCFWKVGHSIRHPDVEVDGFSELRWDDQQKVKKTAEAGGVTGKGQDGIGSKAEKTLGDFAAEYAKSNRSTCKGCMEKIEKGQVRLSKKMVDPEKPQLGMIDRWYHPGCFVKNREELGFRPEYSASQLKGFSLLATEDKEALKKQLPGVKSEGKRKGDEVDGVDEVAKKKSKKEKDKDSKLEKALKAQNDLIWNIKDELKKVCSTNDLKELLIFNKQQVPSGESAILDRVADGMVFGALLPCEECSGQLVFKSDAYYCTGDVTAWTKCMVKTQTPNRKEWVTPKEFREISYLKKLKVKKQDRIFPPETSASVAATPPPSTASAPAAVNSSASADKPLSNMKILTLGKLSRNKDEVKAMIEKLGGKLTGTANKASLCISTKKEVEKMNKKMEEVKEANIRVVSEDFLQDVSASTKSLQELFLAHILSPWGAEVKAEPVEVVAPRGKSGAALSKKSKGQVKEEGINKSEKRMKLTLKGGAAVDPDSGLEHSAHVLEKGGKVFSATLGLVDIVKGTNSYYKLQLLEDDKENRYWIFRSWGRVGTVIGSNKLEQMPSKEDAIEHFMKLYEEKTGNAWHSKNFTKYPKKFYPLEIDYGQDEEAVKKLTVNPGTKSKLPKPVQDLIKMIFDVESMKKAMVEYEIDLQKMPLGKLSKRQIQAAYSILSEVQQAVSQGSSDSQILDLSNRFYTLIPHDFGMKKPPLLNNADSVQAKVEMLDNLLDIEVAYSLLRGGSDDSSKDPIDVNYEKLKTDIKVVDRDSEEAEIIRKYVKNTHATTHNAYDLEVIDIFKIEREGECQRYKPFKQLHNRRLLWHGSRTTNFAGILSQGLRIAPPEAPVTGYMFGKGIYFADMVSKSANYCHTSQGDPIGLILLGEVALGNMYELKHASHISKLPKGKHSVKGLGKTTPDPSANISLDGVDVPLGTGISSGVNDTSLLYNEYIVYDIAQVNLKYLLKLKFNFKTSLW
- PROCEDURE DETAILS: kinetics of PARP-1 inhibition (Km, Vmax, type of inhibition) by fluorescence anisotropy
- Assay type: biochemical
- SETUP CONDITIONS: inhibitor concentration 500 μМ
Measured Vmax, listed per entry for reference.
REPORTED METRIC: Vmax (RFU/sec)

> print(dat)
                                   compound  unit.descriptor  observed.value
1  NC(=O)c1cccc(N)c1 [Compound 3-AB, 3-aminobenzamide, reference compound]          RFU/sec            0.16
2  Nc1ncnc2c1ncn2C1OC(COP(=O)(O)OP(=O)(O)OCC2CNCC(n3cc(I)c(=O)[nH]c3=O)O2)C(O)C1O (stereo not shown)          RFU/sec            0.14
3  Nc1ncnc2c1ncn2C1OC(COP(=O)(O)OP(=O)(O)NCC2CNCC(n3cc(I)c(=O)[nH]c3=O)O2)C(O)C1O (stereo not shown) [Compound 10IU]          RFU/sec            0.17
4  O=c1[nH]c(=O)n([C@H]2CNC[C@@H](CO)O2)cc1I [Compound 11IU]          RFU/sec           0.060

----------
- ASSAY SYSTEM: Murine recombinant poly(ADP-ribose)-polymerase 2 (Mus musculus, UniProt O88554)
- Sequence (O88554 whole entry): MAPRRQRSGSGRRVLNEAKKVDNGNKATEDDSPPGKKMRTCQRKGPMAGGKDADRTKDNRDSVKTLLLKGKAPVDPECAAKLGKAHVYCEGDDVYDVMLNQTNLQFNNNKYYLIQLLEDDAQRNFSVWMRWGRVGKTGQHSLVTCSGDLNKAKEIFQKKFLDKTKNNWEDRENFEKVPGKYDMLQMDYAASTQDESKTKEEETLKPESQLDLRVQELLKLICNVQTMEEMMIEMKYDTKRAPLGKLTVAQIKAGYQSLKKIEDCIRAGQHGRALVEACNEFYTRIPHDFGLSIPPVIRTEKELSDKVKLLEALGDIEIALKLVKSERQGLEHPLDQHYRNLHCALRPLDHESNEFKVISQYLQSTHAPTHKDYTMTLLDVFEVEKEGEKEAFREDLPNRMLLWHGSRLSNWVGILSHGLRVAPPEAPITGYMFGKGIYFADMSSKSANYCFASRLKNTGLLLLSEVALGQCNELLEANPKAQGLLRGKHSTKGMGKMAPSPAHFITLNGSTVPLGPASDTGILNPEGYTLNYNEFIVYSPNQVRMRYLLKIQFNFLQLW
- PROCEDURE DETAILS: autopoly(ADP-ribosyl)ation of PARP-2, [32P]NAD+ incorporation
- SETUP CONDITIONS: autopoly(ADP-ribosyl)ation, 0.6 mM NAD+
- Description: The oligonucleotides were purchased from Biosset (Novosibirsk, Russia). […] The reaction of autopoly(ADP-ribosyl)ation was carried out as follows: for PARP-1 50 mM tris-HCl, pH 8.0, 20 mM MgCl2, 150 mM NaCl, and 7 mM β-mercaptoethanol, activated DNA 2 OE/mL, 0.3 mM [^32P] […] IC50 values were calculated using the Origin Pro 8.0 software by nonlinear regression analysis.
Measured IC50, listed per entry for reference.
REPORTED METRIC: IC50 (µM)

> print(dat)
                                   compound  observed.value
1  O=c1[nH]c(=O)n([C@@H]2O[C@H](CO)[C@@H](O)[C@H]2O)cc1I [Compound 5-I-Urd, 5-I-uridine, reference compound]            26.5
2  O=c1[nH]c(=O)n([C@H]2CNC[C@@H](CO)O2)cc1Cl             378
3  Nc1ncnc2c1ncn2C1OC(COP(=O)(O)OP(=O)(O)OCC2CNCC(n3cc(Br)c(=O)[nH]c3=O)O2)C(O)C1O (stereo not drawn)             474

----------
- ASSAY SYSTEM: PARP-1 (Homo sapiens, UniProt P09874)
- Construct: made in house
- PROCEDURE DETAILS: kinetics of PARP-1 inhibition (Km, Vmax, type of inhibition) by fluorescence anisotropy
- Format: biochemical
- SETUP CONDITIONS: inhibitor concentration 50 μМ
REPORTED METRIC: Vmax (RFU/sec)

> print(dat)
                                   molecule  observed.value
1  O=c1[nH]c(=O)n([C@H]2CNC[C@@H](CO)O2)cc1I [Compound 11IU]           0.066
2  Nc1ncnc2c1ncn2C1OC(COP(=O)(O)OP(=O)(O)NCC2CNCC(n3cc(I)c(=O)[nH]c3=O)O2)C(O)C1O (stereo not shown) [Compound 10IU]            0.19
3  NC(=O)c1cccc(N)c1 [Compound 3-AB, 3-aminobenzamide, reference compound]            0.16
4  Nc1ncnc2c1ncn2C1OC(COP(=O)(O)OP(=O)(O)OCC2CNCC(n3cc(I)c(=O)[nH]c3=O)O2)C(O)C1O (stereo not shown)            0.16
